// data source = a protein production outcome set (Wang et al. 2014)

Assay: label from the status in PepcDB records
propertyName: protein production

INSERT INTO results (sequencedata, propertyname, observedresult) VALUES
  ('MSLQTLLFSFQGRIGRQAFWLWNICYYAMIAGFAMGSNLLFPDVAHLILPVFLLVVLVPDLAITAKRWHDRDKSSWWLLLNVPLVIGRMTIPAGELAVNTQPGMLETLISFVALLCGAWILVECGFLSGTDGSNRFGAEPKWIKKS', 'protein production', 'failed'),
  ('MISILLFALTSFLIGLSGAMAPGPLLTVTVSDSIRRGFRAGPLLVAGHVLGEALLVTLILMGLGYILRSGPAPAILGTAGGAVLIWMGILGFRDSEDTENIPEGGSILRGAIISFANPYFFLWWGAVGAALMYRGLELAGVLGLLAFLAGHWSSDLTWYSLVSFLSSRKSFRMNGRPYKIVMMILSLFLILFGVYFLIESLKAISGYS', 'protein production', 'failed');

----------
Assay: label from the status in PepcDB records
propertyName: protein production

INSERT INTO results (sequencedata, propertyname, observedresult) VALUES
  ('TIDRGIQTQIESLVERWNSEFKRSDIRNLAILVIDIRTNQAIAYCGNVHFDKEQSGNQVDVIRSPRSTGSILKPFLYYAMLQEGEILPNTLLPDIPVNINGFTPQNFNLQFEGAVPASEAIARSLNIPSVTMLQRYGVPKFHSFLKQIGLTTLNRPSSHYGLSLILGGAEATLWDITSAYANMGRSLNRLPQFPCTLLLSDSTSVHRPSFQSGAVWQTFDAIKEVNRPEEIDWRTIPSMQTIAWKTGTSYGFRDAWAVGVTPKYAVGVWVGNATGEGKPGLVGARTAGPVLFDVFNLL', 'protein production', 'failed'),
  ('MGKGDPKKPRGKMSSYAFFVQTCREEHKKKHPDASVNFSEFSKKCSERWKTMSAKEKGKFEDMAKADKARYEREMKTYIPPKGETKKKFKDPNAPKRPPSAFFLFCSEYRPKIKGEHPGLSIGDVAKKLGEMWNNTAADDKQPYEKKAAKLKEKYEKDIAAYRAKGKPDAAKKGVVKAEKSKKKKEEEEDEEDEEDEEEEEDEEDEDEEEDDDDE', 'protein production', 'failed');

----------
Assay: label from the status in PepcDB records
propertyName: protein production

INSERT INTO results (sequencedata, observedresult) VALUES
  ('PVTQVMTPRPVVFRVDATMTINEFLDKHKDTPFSRPLVYSEQKDNIIGFVHRLELFKMQQSGSGQKQLGAVMRPIQVVLNNTALPKVFDQMMTHRLQLALVVDEYGTVLGLVTLEDIFEHLVGE', 'not failed'),
  ('MGHHHHHHSHMSIPSSQYGFVFNKQSGLKLRNDLPVHKPKAGQLLLKVDAVGLCHSDLHVIYEGLDCGDNYVMGHEIAGTVAAVGDDVINYKVGDRVACVGPNGCGGCKYCRGAIDNVCKNAFGDWFGLGYDGGYQQYLLVTRPRNLSRIPDNVSADVAAASTDAVLTPYHAIKMAQVSPTSNILLIGAGGLGGNAIQVAKAFGAKVTVLDKKKEARDQAKKLGADAVYETLPESISPGSFSACFDFVSVQATFDVCQKYVEPKGVIMPVGLGAPNLSFNLGDLALREIRILGSFWGTTNDLDDVLKLVSEGKVKPVVRSAKLKELPEYIEKLRNNAYEGRVVFNP', 'not failed'),
  ('SRGPEPGPQPTMEGDVLDTLEALGYKGPLLEEQALTKAAEGGLSSPEFSELCIWLGSQIKSLCNLEESITSAGRDDLESFQLEISGFLKEMACPYSVLISGDIKDRLKKKEDCLKLLLFLSTELQASQILQNKKHKNSQLDKNSEVYQEVQAMFDTLGIPKSTTSDIPHMLNQVESKVKDILSKVQKNHVGKPLLKMDLNSEQAEQLERINDALSCEYECRRRMLMKRLDVTVQSFGWSDRAKVKTDDIARIYQPKRYALSPKTTITMAHLLAAREDLSKIIRTSSGTSREKTACAINKVGVSFSTVENELMISYLMFLQILVYFSFMSW', 'not failed');
